Reference source: ChEMBL document CHEMBL1201862

# EXPERIMENTAL_SYSTEM: Rac GTPase-activating protein 1 (Homo sapiens, UniProt Q9H0H5)
# Sequence (Q9H0H5 whole entry): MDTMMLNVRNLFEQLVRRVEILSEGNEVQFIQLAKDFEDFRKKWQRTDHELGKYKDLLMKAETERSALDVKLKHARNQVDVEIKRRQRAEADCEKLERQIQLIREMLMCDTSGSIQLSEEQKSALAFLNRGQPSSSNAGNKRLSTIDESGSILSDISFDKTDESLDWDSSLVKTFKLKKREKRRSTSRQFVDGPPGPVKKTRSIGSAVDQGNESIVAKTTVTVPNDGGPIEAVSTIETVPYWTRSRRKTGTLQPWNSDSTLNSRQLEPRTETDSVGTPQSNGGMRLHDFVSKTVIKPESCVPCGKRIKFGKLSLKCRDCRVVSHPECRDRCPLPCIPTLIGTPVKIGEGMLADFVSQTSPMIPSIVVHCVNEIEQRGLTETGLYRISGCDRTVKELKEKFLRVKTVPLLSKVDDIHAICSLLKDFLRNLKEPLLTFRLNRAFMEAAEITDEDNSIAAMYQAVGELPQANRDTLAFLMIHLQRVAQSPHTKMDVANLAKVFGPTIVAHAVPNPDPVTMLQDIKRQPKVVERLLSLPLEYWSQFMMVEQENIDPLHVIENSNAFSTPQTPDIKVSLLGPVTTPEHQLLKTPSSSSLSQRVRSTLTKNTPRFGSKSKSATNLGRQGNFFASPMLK
# PROCEDURE_TEXT: blockers of MgcRacGAP-driven Rac1 GTP hydrolysis – biochemical, ADP Hunter fluorescence, primary and confirmatory, confirmation (AID 624330)
# Format: functional
Active and inactive are the calls of the source. How the calls were made is not given here.
Provide the recorded IC50 for the entries that follow.

Report IC50 for each item below.
1. Oc1ccc(/C=N/NC(=S)Nc2cccnc2)c(O)c1
2. COc1ccc(NC2CCCN(C(=O)COc3ccc(Cl)cc3C)C2)cc1OC (stereo unspecified)

Found:
["40.5 µM (active)", "110 µM (active)"]

Below are 8 compounds. Give each one its IC50.
1. COc1ccc2nc3cc(Cl)ccc3c(Nc3ccc(O)c(CN4CCN(C)CC4)c3)c2c1
2. Oc1ccc(/C=N/Nc2ccnc3cc(Cl)ccc23)cc1O
3. O=C(c1cccc(F)c1)N1CCN(Cc2cccc(Br)c2)CC1
4. COc1ccc(OCCOCCN2CCN(C)CC2)cc1
5. O=C(Cc1cccs1)N/N=C\c1ccc(O)cc1
6. COc1ccc(N2CCN(CC(=O)N3c4ccccc4CC3C)CC2)cc1 (stereo unspecified)
7. Cc1cc(-c2nnc(S)n2/N=C/c2cccc(O)c2)[nH]n1
8. Sc1ncc2cnccn12

Found:
["45.4 µM (active)", "30 µM (active)", "136 µM (active)", "70.2 µM (active)", "39.3 µM (active)", "79.7 µM (active)", "157 µM (active)", "52.3 µM (active)"]

Lookup: I would be grateful if you could share the reported IC50 for CN(C)c1ccc(NC(=O)CN2C(=O)CN=C(c3ccccc3)c3ccccc32)cc1 .
Found: 72 µM (active)
